# assay_target: PAK2 (human)
# assay_remarks: radiometric filter-binding kinase assay, Kinase HotSpot
# settings: compound 0.5 µM; ATP 10 µM
experimental_endpoint: residual activity (%)
Kindly answer with a numeric value in %, unit omitted.

// below: answered compounds
Challenge: Suppose we examine the compound Cc1nc2cc3nc(-c4cccs4)cnc3cc2n1C ; what residual activity value has been reported?
Response given: 102

Challenge: May I ask what residual activity has been recorded for O=C1NC(=O)/C(=C\c2ccc3nccnc3c2)S1 ?
Response given: 98.4

Challenge: // returns reported residual activity for input CCN(CC)CCCCN1c2ccccc2Oc2ccc(Cl)cc21
Response given: 98.6

More entries:
Challenge: For the compound Cn1nc2c3c(cccc31)C(=O)c1ccccc1-2 , what residual activity is on record?
Response given: 102

Challenge: Can you look up the measured residual activity of CN(C)C[C@H]1CCn2c(c(C3=C(c4cn(C)c5ccccc45)C(=O)NC3=O)c3ccccc32)C1 for me?
Response given: 85.1
